The following molecules are shown together with reported pIC50 values.
Test system: Trypanosoma brucei rhodesiense
protocol_notes: Antitrypanosomal activity against Trypanosoma brucei rhodesiense after 72 hrs by alamar blue assay
Type: functional, organism-based
Keep in mind that pIC50 stands for -log10 of concentration in molar terms.

Worked set:
molecule="CN1CCN(CCC(=O)N2CCC3(N(C)C)CC(c4ccccc4)C2C(c2ccccc2)C3)CC1 (racemic)" experimental_system="Trypanosoma brucei rhodesiense" numeric_result=4.55
molecule="CN1CCN(CCC(=O)N2CCC3(N4CCCC4)CC(c4ccccc4)C2C(c2ccccc2)C3)CC1 (racemic)" experimental_system="Trypanosoma brucei rhodesiense" numeric_result=4.50
molecule="CN(C)C12CC(OC(=O)CN3CCCCC3)C(C(c3ccccc3)C1)C(c1ccccc1)C2 (stereo unspecified)" experimental_system="Trypanosoma brucei rhodesiense" numeric_result=5.70
molecule="Nc1nc(N)nc(Nc2ccc([As]3SCC(CO)S3)cc2)n1 (stereo unspecified)" experimental_system="Trypanosoma brucei rhodesiense" numeric_result=8.41
molecule="CN1CCN(CC(=O)N2CCC3(N4CCCC4)CC(c4ccccc4)C2C(c2ccccc2)C3)CC1 (racemic)" experimental_system="Trypanosoma brucei rhodesiense" numeric_result=4.39

Then there is this molecule:
Problem: // lookup pIC50 for CCN(CC)CC(=O)OC1CC2(N3CCCC3)CC(c3ccccc3)C1C(c1ccccc1)C2 (stereo unspecified)
Solution: 6.14
